- assay.system: fatty acyl CoA:cholesterol acyl transferase (ACAT) (Rattus norvegicus, UniProt O70536)
- Construct: The supernatant, containing the microsomal fraction, served as the source of the cholesterol-esterifying enzyme; from tissue; host or cells: rat adrenals (1000 x g supernatant containing the microsomal fraction)
- Sequence (O70536 whole entry): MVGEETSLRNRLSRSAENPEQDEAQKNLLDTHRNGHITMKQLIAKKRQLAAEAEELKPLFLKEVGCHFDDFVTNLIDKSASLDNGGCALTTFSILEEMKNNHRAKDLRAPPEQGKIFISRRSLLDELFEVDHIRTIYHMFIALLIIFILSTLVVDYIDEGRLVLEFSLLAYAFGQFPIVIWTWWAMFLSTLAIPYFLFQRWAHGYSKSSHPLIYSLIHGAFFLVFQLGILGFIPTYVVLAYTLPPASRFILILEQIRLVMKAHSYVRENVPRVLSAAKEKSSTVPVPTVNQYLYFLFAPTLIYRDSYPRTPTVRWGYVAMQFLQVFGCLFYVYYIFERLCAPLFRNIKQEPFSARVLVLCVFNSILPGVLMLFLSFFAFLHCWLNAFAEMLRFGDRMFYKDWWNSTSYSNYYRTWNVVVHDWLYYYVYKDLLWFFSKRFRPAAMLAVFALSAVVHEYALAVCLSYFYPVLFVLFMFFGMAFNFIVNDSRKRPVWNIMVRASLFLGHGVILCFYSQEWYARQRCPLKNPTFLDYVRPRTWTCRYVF
- assay.text: Inhibition of ACAT in rat adrenal microsomal supernatant (14C-oleoyl CoA, cholesteryl ester counted)
- Assay type: biochemical
- Parameters: dose or concentration left out as unconfirmed
- details: vs control without compound
- Procedure: The compounds of the present invention were assayed for two types of biological activity related to their potential use as antiatherosclerotic agents. Compounds were tested in vitro for the ability to inhibit the enzyme fatty acyl CoA:cholesterol acyl transferase (ACAT) and in vivo for serum hypolipidemic activity as measured by their ability to inhibit lipid absorption in rats. The compounds were tested for their ability to inhibit ACAT according to the following procedure: […]
measurement.name: % Inhibition (%)
One number for each entry, in %.

[[record]]
chem_smiles = "CCCCN(CCCC)C(=O)Nc1ccccc1Cl"
endpoint_unit = "%"
measured_value = 71.0


Please go through the list and note % Inhibition for each compound.
1. CCCCc1ccc(NC(=O)N(CCCC)CCCC)cc1
2. CCCCN(CCCC)C(=O)Nc1cccc(Cl)c1

1: 93.5; 2: 88.3

###

- assay.system: fatty acyl CoA:cholesterol acyl transferase (ACAT) (Rattus norvegicus, UniProt O70536)
- Construct: The supernatant, containing the microsomal fraction, served as the source of the cholesterol-esterifying enzyme; from tissue; host or cells: rat adrenals (1000 x g supernatant containing the microsomal fraction)
- assay.text: Inhibition of ACAT in rat adrenal microsomal supernatant (14C-oleoyl CoA, cholesteryl ester counted)
- Type: biochemical
- Parameters: dose or concentration left out as unconfirmed
- details: vs control without compound
measurement.name: % Inhibition
I'd appreciate it if you included the unit after the number.

[[record]]
compound = "CCCCN(CCCC)C(=O)Nc1ccc(C)c(C)c1"
measured_value = "49.2%"


Would you be so kind as to report % Inhibition for each listed record?
1. CCCCN(CCCC)C(=O)Nc1ccc(Cl)c(C(F)(F)F)c1
2. CCCCN(CCCC)C(=O)Nc1ccccc1C
3. Cc1ccc(NC(=O)N(C2CCCCC2)C2CCCCC2)c(C)c1
4. CCCCN(CCCC)C(=O)Nc1cc(Cl)ccc1C
5. Cc1ccc(NC(=O)N(CCCCC2CCCCC2)CCCCC2CCCCC2)c(C)c1
6. CCCCC(CC)CN(CC(CC)CCCC)C(=O)Nc1ccc(C)cc1C (stereo not drawn)
7. CCCCN(CCCC)C(=O)Nc1ccc(C)c(Cl)c1
8. Cc1ccc(NC(=O)N(C2CCCC2)C2CCCC2)c(C)c1

["87.3%", "61.8%", "94.3%", "75.3%", "86.3%", "86.2%", "91.2%", "90.4%"]

Please state % Inhibition for every compound in the list that follows.
1. CCCCN(CCCC)C(=O)Nc1cc(Cl)cc(Cl)c1
2. CCCCN(CCCC)C(=O)Nc1cc(Cl)cc(Cl)c1Cl
3. CCCCN(CCCC)C(=O)Nc1ccc(C(C)=O)cc1

1. 79.3%
2. 61.6%
3. 55.1%

Your task in this section: give % Inhibition for each listed record.
1. CCCCN(CCCC)C(=O)Nc1ccc([N+](=O)[O-])cc1Cl
2. CCCCCCCN(CCCCCCC)C(=O)Nc1ccc(C)cc1C
3. CCCCN(CCCC)C(=O)Nc1ccc(F)c(Cl)c1
4. CCCCCCCCCCCCN(CCCCCCCCCCCC)C(=O)Nc1ccc(C)cc1C
5. CCCCN(CCCC)C(=O)Nc1cc(C)ccc1C

86.7%
91.1%
90.9%
26.3%
96.1%

Give % Inhibition for each listed item.
1. CCCCCCCCCCN(CCCCCCCCCC)C(=O)Nc1ccc(C)cc1C
2. CCCCN(CCCC)C(=O)Nc1cccc(C)c1

1: 64.0%; 2: 78.4%

Parameters: items (list). Returns: % Inhibition for each item.
1. CCCCN(CCCC)C(=O)Nc1ccc(C)c(NC(=O)N(CCCC)CCCC)c1
2. Cc1ccc(C)c(NC(=O)N(CC(C)C)CC(C)C)c1

1: 94.5%; 2: 74.3%
